experiment: Mouse PK of G7883, PO in MCT vehicle; type: in vivo, female CD-1 mice; details: female, CD-1, plasma, 250 mg/kg, PO 250 mpk, mean ± SD, read-out: t1/2 (converted)
TEST_READOUT: half-life (h)
Value expressed in h; do not type the unit.

Reported half-life for `Cc1nccnc1-c1nn2c(=O)cc(-c3ccc(C4CCCCC4)cc3)[nH]c2c1C(=O)N1CC(CF)C1` : what is it? 2.74

---

assay: Mouse PK of G7883, PO in MCT vehicle; type: in vivo, female CD-1 mice; settings: female, CD-1, plasma, PO, 25 to 250 mpk, read-out: bioavailability
TEST_READOUT: bioavailability

Reported bioavailability for Cc1nccnc1-c1nn2c(=O)cc(-c3ccc(C4CCCCC4)cc3)[nH]c2c1C(=O)N1CC(CF)C1 [G7883] : what is it? ~7%
